# target.under.test: T1, HLA-A2/E6 (29-38) tetramer (human; HPV 16)
# T1 construct: also called E6(29-38) peptide-MHC tetramer; E6(29-38)-loaded tetramer
# measurement.notes: tetramer flow cytometry; transfected Jurkat-derived cells, CD8+ population
Recorded measurements of % cells in E6 tet-/CD8+ quadrant, one per entry
Reply numerically in %, unit not repeated.

These solved cases illustrate the format of a correct answer.
TCR 27 (codon optimized, cysteine modified version) (TCR, V domains shown) V domain 1: DAKTTQPNSMESNEEEPVHLPCNHSTISGTDYIHWYRQLPSQGPEYVIHGLTSNVNNRMASLAIAEDRKSSTLILHRATLRDAAVYYCILRVPPQSGGYQKVTFGTGTKLQVIP V domain 2: NAGVTQTPKFQVLKTGQSMTLQCAQDMNHNSMYWYRQDPGMGLRLIYYSASEGTTDKGEVPNGYNVSRLNKREFSLRLESAAPSQTSVYFCASSEFGSLNEKLFFGSGTQLSVLE ... 73.5
TCR 24 (codon optimized, cysteine modified version) (TCR, V domains shown) V domain 1: AQKITQTQPGMFVQEKEAVTLDCTYDTSDQSYGLFWYKQPSSGEMIFLIYQGSYDEQNATEGRYSLNFQKARKSANLVISASQLGDSAMYFCAMREGRGDSWGKLQFGAGTQVVVTP V domain 2: DVKVTQSSRYLVKRTGEKVFLECVQDMDHENMFWYRQDPGLGLRLIYFSYDVKMKEKGDIPEGYSVSREKKERFSLILESASTNQTSMYLCASSPFGRGSYEQYFGPGTRLTVTE ... 66.2
modified version of TCR 13 (codon optimized, cysteine modified) (TCR, V domains shown) V domain 1: AQSVTQLDSHVSVSEGTPVLLRCNYSSSYSPSLFWYVQHPNKGLQLLLKYTSAATLVKGINGFEAEFKKSETSFHLTKPSAHMSDAAEYFCVVRGGKLIFGQGTELSVKP V domain 2: GAGVSQSPRYKVAKRGQDVALRCDPISGHVSLFWYQQALGQGPEFLTYFQNEAQLDKSGLPSDRFFAERPEGSVSTLKIQRTQQEDSAVYLCASSPTGTERELFFGEGSRLTVLE ... 59.5

Query binder follows.
(Q) Recorded % cells in E6 tet-/CD8+ quadrant of TCR 22 (codon optimized, cysteine modified version) (TCR, V domains shown) V domain 1: GQNIDQPTEMTATEGAIVQINCTYQTSGFNGLFWYQQHAGEAPTFLSYNVLDGLEEKGRFSSFLSRSKGYSYLLLKELQMKDSASYLCAVRARMDSNYQLIWGAGTKLIIKP V domain 2: DAGVTQSPTHLIKTRGQHVTLRCSPISGHKSVSWYQQVLGQGPQFIFQYYEKEERGRGNFPDRFSARQFPNYSSELNVNALLLGDSALYLCASSRTENYGYTFGSGTRLTVVE , please.
(A) 47.3

Each recorded value in this set is attributed to patent US20190225692A1.
